Every entry's value here was drawn from patent US10668041B2.

# assay method text: Crossover dietary trial: serum AED concentration
# Format: in vivo, canine
# measurement conditions: both sexes, mixed: 17 different breeds and cross breeds, dog, in vivo, placebo-standardized diet; spread 23.50-34.00 μg/ml; read-out: serum concentration of PB
# Procedure: A 6-month prospective, randomized, double blinded, placebo controlled, crossover dietary trial comparing an MCT-containing diet to a standardized placebo diet containing no MCTs in canine epilepsy was performed. Subjects were fed either the MCT or placebo diet for 3 months (Day 1 to Day 90±2 days) followed by a subsequent respective switch of diet for a further 3 months (Day 90 to Day 180±2 days). […]
property: concentration at 3 months (ng/mL)

molecule smiles | result value
CCC1(c2ccccc2)C(=O)NC(=O)NC1=O | 26500
